molecular target: trypsin (Bos taurus, UniProt P00760); assay: Inactivation of trypsin by biotin-isocoumarins (incubation method); type: biochemical; conditions: inhibitor 41-42 μM; 0.1 M Hepes, 0.01 M CaCl2, pH 7.5, 25° C.; read-out: kobs/[I] Trypsin
Sequence (P00760 24-246): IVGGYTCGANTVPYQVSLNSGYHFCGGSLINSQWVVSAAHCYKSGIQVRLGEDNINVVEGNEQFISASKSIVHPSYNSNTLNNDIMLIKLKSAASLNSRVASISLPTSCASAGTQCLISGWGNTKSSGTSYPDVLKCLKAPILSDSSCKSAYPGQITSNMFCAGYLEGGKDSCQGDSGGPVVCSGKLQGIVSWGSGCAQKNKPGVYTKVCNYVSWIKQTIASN
Lab note: anything with kinact/KI at or over 2 M⁻¹ s⁻¹ counts as yes (1); the rest go in no (0).

// below: answered molecules
>  <CHEMICAL_SMILES>
CCCOc1oc(=O)c2cc(NC(=O)CCCCCNC(=O)CCCC[C@@H]3SC[C@@H]4NC(=O)N[C@@H]43)ccc2c1Cl

>  <TGT>
trypsin (Bos taurus, UniProt P00760)

>  <CLASS_NAME>
yes (1)

$$$$
>  <CHEMICAL_SMILES>
O=C(CCCC[C@@H]1SC[C@@H]2NC(=O)N[C@@H]21)Nc1ccc2c(Cl)c(OCCc3ccccc3)oc(=O)c2c1

>  <TGT>
trypsin (Bos taurus, UniProt P00760)

>  <CLASS_NAME>
no (0)

$$$$
>  <CHEMICAL_SMILES>
CCOc1oc(=O)c2cc(NC(=O)CCCCCNC(=O)CCCC[C@@H]3SC[C@@H]4NC(=O)N[C@@H]43)ccc2c1Cl

>  <TGT>
trypsin (Bos taurus, UniProt P00760)

>  <CLASS_NAME>
yes (1)

$$$$
>  <CHEMICAL_SMILES>
CCCOc1oc(=O)c2cc(NC(=O)CCCC[C@@H]3SC[C@@H]4NC(=O)N[C@@H]43)ccc2c1Cl

>  <TGT>
trypsin (Bos taurus, UniProt P00760)

>  <CLASS_NAME>
yes (1)

$$$$

Please examine the following record next.
Kindly determine if kinact/KI recorded for `O=C(CCCC[C@@H]1SC[C@@H]2NC(=O)N[C@@H]21)NCCCCCC(=O)Nc1ccc2c(Cl)c(OCCc3ccccc3)oc(=O)c2c1` is above or exactly 2 M⁻¹ s⁻¹.
no (0)
